Task for the reader: assign each of the following compounds its reported inhibition.
- tgt: Cyclin-dependent kinase 1 (Homo sapiens)
- measurement setup: at 0.1 µM;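 also: enzyme assay on the CDK1/cyclin B complex, reported as mean percent inhibition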
Numbers only, in %.

These recorded examples may help you get a feel for the data.
- test smiles: "N#Cc1c(NC(=O)c2ccc(F)cc2)sc2c1CCCC2"
  inhibition (%): -0.03
- test smiles: "Fc1ccc(-c2cc(-c3c[nH]nc3-c3ccccn3)ccn2)cc1"
  inhibition (%): 0.86
- test smiles: "COc1ccc(-c2cc3c(N)ncnc3o2)cc1"
  inhibition (%): 2.33
- test smiles: "COc1ccc(CNC(=O)c2ccc(-c3cc(-c4nnc(C)o4)ccc3C)cc2)cc1"
  inhibition (%): 1.08
- test smiles: "COc1ccc(-c2cc(-c3c[nH]nc3-c3ccccn3)ccn2)cc1"
  inhibition (%): 0.11
- test smiles: "O=S(=O)(CCNCc1ccc(-c2ccc3ncnc(Nc4ccc(OCc5cccc(F)c5)c(Cl)c4)c3c2)o1)c1ccccc1"
  inhibition (%): 0.29
- test smiles: "Nc1ncc(-c2cccc(S(N)(=O)=O)c2)c2scc(-c3ccc(F)c(Cl)c3)c12"
  inhibition (%): 1.33
- test smiles: "CCOc1ccc2c(-c3ccnc(Nc4cccc(C(F)(F)F)c4)n3)cnn2n1"
  inhibition (%): 0.34

Could you report inhibition for every entry in the following list?
1. CC(=O)Nc1cccc(C#Cc2cncnc2Nc2ccc(OCc3cccc(F)c3)c(Cl)c2)c1
2. Fc1cccc(COc2ccc(Nc3ncnc4sc(-c5ccco5)cc34)cc2Cl)c1
3. CCN(CC)S(=O)(=O)c1ccc(OC)c(Nc2ncc(-c3ccccc3)o2)c1
4. COc1ccc(-c2nn3ncccc3c2-c2ccnc(Nc3ccc4c(c3)OCCO4)n2)cc1
5. CCN1CCC(CC(=O)Nc2n[nH]c3nnc(-c4cccc(F)c4F)cc23)CC1
6. COC(=O)Nc1nc2ccc(Oc3ccc(NC(=O)Nc4cccc(Cl)c4)cc3)cc2[nH]1

Result ::
1: -0.4; 2: -1.09; 3: 0.99; 4: 0.5; 5: 1.67; 6: -0.02

Values compiled from ChEMBL document CHEMBL1961873.
